study_system: T1, Abeta42 beta amyloid peptide (UniProt P05067 672-713)
T1 construct: domain: Abeta42 beta amyloid peptide; also called Aβ42; Aβ
T1 sequence (P05067 672-713 limits assumed): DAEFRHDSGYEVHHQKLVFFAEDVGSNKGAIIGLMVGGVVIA
measurement_description: competition ELISA, NS0 supernatant titrated against 0.25 ug/ml biotinylated mouse 6E10 (mouse MDT-2007) on coated beta amyloid; IC50 normalised to mouse 6E10 (=1; <1 improved)
Readings of fold difference in IC50 relative to mouse 6E10 for the listed binders
Numbers only; they are read as fold.

Please review the following examples before continuing.
Composite human antibody variant VH5/VK2 (antibody, human IgG1, V domains shown, Human IgG1/kappa (pANT15/pANT13), NS0 cells) VH: QVQLVQSGAEVKKPGASVKVSCTASGFNIKDTYIHWVRQARGQRLEWIGRFDPVNVNTRYDSRFRGRVTITSDASTSTAYMELSSLRSEDTAVYYCSRSYYNGRRRFTYWGQGTLVTVSS VL: DIVMTQSPSSLTASVGDRVTITCKASQSLLSSGNQKNYLTWYQQKPGQPPKLLIYWASIRESGVPDRFTGSGSGTFFTLTISSLQAEDVAVYYCQNDYNYPFTFGQGTKLEIK: 0.72
MDT-2007 (composite human antibody sequence variant VH4/VK2) (antibody, human IgG1, V domains shown, Human IgG1/kappa (pANT15/pANT13), NS0 cells) VH: QVQLVQSGAEVKKPGASVKVSCTASGFNIKDTYIHWVRQARGQRLEWIGRFDPVNVNTRYDSRFRGRVTITSDASTNTAYMELSSLRSEDTAVYYCSRSYYNGRRRFTYWGQGTLVTVSS VL: DIVMTQSPSSLTASVGDRVTITCKASQSLLSSGNQKNYLTWYQQKPGQPPKLLIYWASIRESGVPDRFTGSGSGTFFTLTISSLQAEDVAVYYCQNDYNYPFTFGQGTKLEIK: 0.67
Composite human antibody variant VH5/VK1 (antibody, human IgG1, V domains shown, Human IgG1/kappa (pANT15/pANT13), NS0 cells; also called VH5/YK1) VH: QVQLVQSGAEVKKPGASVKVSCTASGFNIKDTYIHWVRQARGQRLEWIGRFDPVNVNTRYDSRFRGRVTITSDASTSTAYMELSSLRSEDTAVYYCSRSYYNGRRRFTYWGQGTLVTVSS VL: DIVMTQSPDSLTVSLGERATINCKASQSLLSSGNQKNYLTWYQQKPGQPPKLLIYWASIRESGVPDRFTGSGSGTFFTLTISSLQAEDVAVYYCQNDYNYPFTFGQGTKLEIK: 0.8

We now examine a further binder.
[ask] State, in one line, measured fold difference in IC50 relative to mouse 6E10 of Composite human antibody variant VH4/VK1 (antibody, human IgG1, V domains shown, Human IgG1/kappa (pANT15/pANT13), NS0 cells; also called VH4/YK1) VH: QVQLVQSGAEVKKPGASVKVSCTASGFNIKDTYIHWVRQARGQRLEWIGRFDPVNVNTRYDSRFRGRVTITSDASTNTAYMELSSLRSEDTAVYYCSRSYYNGRRRFTYWGQGTLVTVSS VL: DIVMTQSPDSLTVSLGERATINCKASQSLLSSGNQKNYLTWYQQKPGQPPKLLIYWASIRESGVPDRFTGSGSGTFFTLTISSLQAEDVAVYYCQNDYNYPFTFGQGTKLEIK
[reply] 0.94
